B1: EEHEE_rd3_0130 (parent)
chain: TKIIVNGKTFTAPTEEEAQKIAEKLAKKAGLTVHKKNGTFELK

Variants of: B1
Test: folding stability dG (cDNA display proteolysis); higher = more stable
Settings: PBS, room temperature
The reader will find reported folding stability dG values listed item by item below.

- SEQUENCE CHAIN: "TKIIVNGKTFTAPTEEEAQKIAEKLAKKAGLTVHKANGTFELK"
  U: "kcal/mol"
  folding stability dG: 0.698
- SEQUENCE CHAIN: "TKIIVNGKTFTAPTIEEAQKIAEKLAKKAGLTVHKKNGTFELK"
  U: "kcal/mol"
  folding stability dG: 0.689
- SEQUENCE CHAIN: "TKIIVNGKTFTAPTEEEAQKIVEKLAKKAGLTVHKKNGTFELK"
  U: "kcal/mol"
  folding stability dG: 0.71

Values were extracted from the MegaScale stability set (Tsuboyama et al. 2023).
